Origin of the recorded values: the supplement of paper PMC10646978

system: RAW-Dual (murine macrophage reporter line); assay: viability score (confluency relative to resting cells, overnight) (fraction); higher = more viable, active = viable (0.7 or more); settings: modulator concentration 10 µM
measured_attribute: viability score

>  <compound>
CC(=O)c1cc2c(o1)C(=O)c1ccccc1C2=O

>  <target_system>
RAW-Dual (murine macrophage reporter line)

>  <recorded_result>
0.995 (active)

$$$$
>  <compound>
CCN(CC)c1ccc(C=C(C#N)C#N)c(OC(C)=O)c1

>  <target_system>
RAW-Dual (murine macrophage reporter line)

>  <recorded_result>
1.01 (active)

$$$$
>  <compound>
CCOC(=O)C(CCCOc1c(C)cc(Cl)cc1C)C(=O)OCC

>  <target_system>
RAW-Dual (murine macrophage reporter line)

>  <recorded_result>
0.997 (active)

$$$$
>  <compound>
Cc1ccc(C2C=C(c3ccccc3)Nc3ncnn32)cc1 (stereo unspecified)

>  <target_system>
RAW-Dual (murine macrophage reporter line)

>  <recorded_result>
0.982 (active)

$$$$
>  <compound>
Br.O=S(=O)(c1ccc(-c2csc(Nc3ccc(Br)cc3)n2)cc1)N1CCOCC1

>  <target_system>
RAW-Dual (murine macrophage reporter line)

>  <recorded_result>
0.999 (active)

$$$$
>  <compound>
COc1cccc(O)c1O

>  <target_system>
RAW-Dual (murine macrophage reporter line)

>  <recorded_result>
0.935 (active)

$$$$

###

NF-kB reporter by entry:
system: RAW-Dual (murine macrophage reporter line); experiment: NF-kB reporter (SEAP) activity fold change vs agonist alone; higher = enhanced NF-kB activity; conditions: modulator concentration 10 µM; agonist: MPLA […]
measured_attribute: NF-kB reporter

>  <compound>
O=C(O)C=Cc1cccc(NS(=O)(=O)C=Cc2ccccc2)c1

>  <recorded_result>
1.33

$$$$
>  <compound>
CC(C)CC(C(=O)Nc1ccc(Cl)cc1)N1C(=O)c2ccccc2C1=O (stereo unspecified)

>  <recorded_result>
0.938

$$$$
>  <compound>
CC(=O)Oc1ccc2c(C)c(Cl)c(=O)oc2c1C

>  <recorded_result>
0.96

$$$$
>  <compound>
COC(=O)C1=CN(CC2CCCO2)C=C(C(=O)OC)C1c1ccc(F)cc1 (stereo unspecified)

>  <recorded_result>
1.22

$$$$
>  <compound>
Cc1cc(C)nc(Nc2ncc(O)n2-c2ccc(F)cc2)n1

>  <recorded_result>
1.01

$$$$
>  <compound>
CCN1C(=O)C(=C2SC(N3CCOCC3)=NC2=O)c2ccccc21

>  <recorded_result>
0.952

$$$$
>  <compound>
Cc1cccc(OCCn2cc(C=Nn3cnnc3)c3ccccc32)c1

>  <recorded_result>
1.31

$$$$
>  <compound>
Cc1cccc(N(CC(=O)Nc2ccc3c(c2)OCO3)S(C)(=O)=O)c1

>  <recorded_result>
1

$$$$
>  <compound>
O=C(NN=Cc1cccc(Cl)c1Cl)c1cc(O)cc(O)c1

>  <recorded_result>
1.07

$$$$
>  <compound>
Cn1nccc1C(=O)N1CCC(O)(C(F)(F)F)CC1

>  <recorded_result>
1.01

$$$$
>  <compound>
O=C(NC(=S)Nc1cccc([N+](=O)[O-])c1)c1cccc(I)c1

>  <recorded_result>
0.985

$$$$

###

system: RAW-Dual (murine macrophage reporter line); experiment: IRF reporter (Lucia luciferase) activity fold change vs agonist alone; higher = enhanced IRF activity; details: modulator concentration 10 µM; agonist: MPLA […]
Give label 1 when the value for IRF reporter is at least 1. Give label 0 when it is less.

>  <compound>
Oc1ccc(O)cc1

>  <answer_label>
label 0

$$$$
>  <compound>
COc1ccc(C)c2sc(=NC(=O)c3ccccc3)n(C)c12

>  <answer_label>
label 1

$$$$
>  <compound>
Cc1cn([C@H]2C=C[C@@H](CO)O2)c(=O)[nH]c1=O

>  <answer_label>
label 0

$$$$
>  <compound>
CCOc1ccccc1NC(=O)N1CCCC1CS(=O)(=O)c1ccccc1 (centres undefined)

>  <answer_label>
label 1

$$$$
>  <compound>
Cc1cc2nc(SCc3cc4c(cc3Cl)OCO4)[nH]c2cc1C

>  <answer_label>
label 1

$$$$
>  <compound>
COc1cccc(-c2nnc(NC(=O)C3CC3)o2)c1

>  <answer_label>
label 1

$$$$
>  <compound>
O=C(/C=C/C=C/c1ccc2c(c1)OCO2)N1CCCCC1

>  <answer_label>
label 1

$$$$
>  <compound>
CC12CC3CC(C1)CC(CC(=O)O)(C3)C2

>  <answer_label>
label 1

$$$$
>  <compound>
O=C1CN(C(=O)c2cc3ccccc3o2)c2ccccc2N1

>  <answer_label>
label 1

$$$$
>  <compound>
O=C(NCc1cccc(Oc2ccccn2)c1)C1c2ccccc2Oc2ccccc21

>  <answer_label>
label 1

$$$$
>  <compound>
C=C1C(=O)OC2CC3(C)CCCC(C)C3=CC12 (centres undefined)

>  <answer_label>
label 0

$$$$
>  <compound>
CCCc1nn(C)c2c(=O)[nH]c(-c3cc(S(=O)(=O)N4CCN(C)CC4)ccc3OCC)nc12

>  <answer_label>
label 1

$$$$
>  <compound>
CN(C)CC/C=C1\c2ccccc2COc2ccccc21.Cl

>  <answer_label>
label 0

$$$$
>  <compound>
O=C(C=Cc1ccc(Cl)c(Cl)c1)c1ccc2ccccc2c1O

>  <answer_label>
label 1

$$$$
>  <compound>
CC1CC2(NC(=O)NC2=O)C(C)CN1C (centres undefined)

>  <answer_label>
label 1

$$$$
>  <compound>
Cn1ccnc1Sc1nc(Nc2cccc(Cl)c2)nc(N2CCOCC2)n1

>  <answer_label>
label 1

$$$$
>  <compound>
Cc1cc(C)n(CCNc2nc3ccccc3s2)n1

>  <answer_label>
label 1

$$$$
>  <compound>
CCCCC(=O)N(Cc1ccc(-c2ccccc2-c2nn[nH]n2)cc1)[C@H](C(=O)O)C(C)C

>  <answer_label>
label 0

$$$$
>  <compound>
CC(C)(C)C1CCC(OC(=O)CCC(=O)O)CC1 (centres undefined)

>  <answer_label>
label 1

$$$$
>  <compound>
O=C(Nc1nc(CC(=O)N2CCc3ccccc3C2)cs1)c1ccc(Cl)cc1

>  <answer_label>
label 1

$$$$
>  <compound>
Cc1cc(NC(=O)c2ccoc2COc2ccccc2)no1

>  <answer_label>
label 1

$$$$
>  <compound>
O=C(O)CCn1c2c(c3ccccc31)C[C@H](NS(=O)(=O)c1ccc(F)cc1)CC2

>  <answer_label>
label 1

$$$$
